- target: Neuromedin-K receptor (Rattus norvegicus)
- Sequence (P16177 whole entry): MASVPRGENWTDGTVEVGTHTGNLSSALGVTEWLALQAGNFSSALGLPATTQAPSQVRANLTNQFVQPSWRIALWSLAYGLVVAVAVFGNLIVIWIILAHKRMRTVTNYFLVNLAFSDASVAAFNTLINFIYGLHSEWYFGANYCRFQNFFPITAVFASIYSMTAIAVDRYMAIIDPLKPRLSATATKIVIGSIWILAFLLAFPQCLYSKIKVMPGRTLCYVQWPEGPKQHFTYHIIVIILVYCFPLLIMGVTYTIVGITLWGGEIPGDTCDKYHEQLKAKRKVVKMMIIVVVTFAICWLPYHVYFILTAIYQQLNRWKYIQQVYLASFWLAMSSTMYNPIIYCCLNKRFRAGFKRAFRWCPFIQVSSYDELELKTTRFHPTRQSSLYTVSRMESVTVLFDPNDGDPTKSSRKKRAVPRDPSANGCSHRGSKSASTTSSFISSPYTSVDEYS
- test-description: In vitro agonistic activity against tachykinin receptor 3 of everted rat protal vein.
value-type: EC50 (µM)

[
  {
    "compound": "CSCC[C@H](NC(=O)[C@H](CC(C)C)N1CC2CCN(C(=O)[C@H](Cc3ccccc3)NC(=O)[C@H](Cc3ccccc3)NC(=O)[C@H](CO)NC(=O)[C@H](CC(=O)O)NC(=O)[C@@H](N)CCCCN)C2C1=O)C(N)=O (stereo partly specified)",
    "meas-value": 2.63
  }
]

A. CSCC[C@H](NC(=O)[C@H](CC(C)C)N1CC2CCN(C(=O)[C@@H](NC(=O)[C@H](Cc3ccccc3)NC(=O)[C@H](CO)NC(=O)[C@H](CC(=O)O)NC(=O)[C@@H](N)CCCCN)C(C)C)C2C1=O)C(N)=O (stereo partly specified)
B. CSCC[C@H](NC(=O)[C@H](CC(C)C)NC(=O)CNC(=O)[C@@H](NC(=O)[C@H](Cc1ccccc1)NC(=O)[C@H](CO)NC(=O)[C@H](CC(=O)O)NC(=O)[C@@H](N)CCCCN)C(C)C)C(N)=O
C. CSCC[C@H](NC(=O)[C@H](CC(C)C)N1CCC(NC(=O)[C@H](Cc2ccccc2)NC(=O)[C@H](Cc2ccccc2)NC(=O)CCCCN)C1=O)C(N)=O (stereo partly specified)
Query: Arrange these 3 compounds in increasing order of EC50. The labels, placed in the requested order, form the answer.
Result: B, A, C

====

- target: Substance-P receptor (Cavia porcellus)
- Sequence (P30547 whole entry): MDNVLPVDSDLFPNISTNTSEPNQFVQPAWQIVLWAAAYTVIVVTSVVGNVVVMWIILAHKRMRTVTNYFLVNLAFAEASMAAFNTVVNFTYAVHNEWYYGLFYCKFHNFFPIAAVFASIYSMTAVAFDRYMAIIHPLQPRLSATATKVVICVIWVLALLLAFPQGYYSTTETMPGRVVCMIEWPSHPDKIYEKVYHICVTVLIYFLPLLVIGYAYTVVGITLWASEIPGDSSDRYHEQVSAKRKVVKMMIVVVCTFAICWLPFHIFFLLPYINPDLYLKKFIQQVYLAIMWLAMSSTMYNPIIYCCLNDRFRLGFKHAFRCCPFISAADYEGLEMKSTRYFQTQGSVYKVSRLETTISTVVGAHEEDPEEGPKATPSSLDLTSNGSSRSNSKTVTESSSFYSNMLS
- test-description: In vitro agonistic activity against tachykinin receptor 1 of guinea pig ileum longitudinal smooth muscle.
pEC50: −log10 of the molar value. Non-standard residues stand in square brackets, D forms with d. Residues, ends and D or L forms follow the SMILES beside them. Ava = NCCCCC(=O)O
value-type: pEC50

These recorded examples may help you get a feel for the data.
[
  {
    "compound": "CSCC[C@H](NC(=O)[C@H](CC(C)C)N1CC[C@]2(CCCN2C(=O)[C@H](Cc2ccccc2)NC(=O)[C@H](Cc2ccccc2)NC(=O)CCCCN)C1=O)C(N)=O",
    "meas-value": 6.51
  },
  {
    "compound": "CSCC[C@H](NC(=O)[C@H](CC(C)C)N1C[C@@H]2CCN(C(=O)[C@H](Cc3ccccc3)NC(=O)[C@H](Cc3ccccc3)NC(=O)CCCCN)[C@@H]2C1=O)C(N)=O",
    "meas-value": 4.42
  }
]

a. CSCC[C@H](NC(=O)[C@H](CC(C)C)NC(=O)CNC(=O)[C@@H](NC(=O)[C@H](Cc1ccccc1)NC(=O)[C@H](Cc1ccccc1)NC(=O)[C@H](CC(=O)O)NC(=O)[C@H](Cc1c[nH]cn1)NC(=O)[C@H](CCSC)NC(=O)[C@@H](N)CC(=O)O)C(C)C)C(N)=O
b. CSCC[C@H](NC(=O)[C@H](CC(C)C)N1CC[C@@H](NC(=O)[C@@H](NC(=O)[C@H](Cc2ccccc2)NC(=O)[C@H](CO)NC(=O)[C@H](CC(=O)O)NC(=O)[C@@H](N)CCCCN)C(C)C)C1=O)C(N)=O
c. CSCC[C@H](NC(=O)[C@H](CC(C)C)NC(=O)CNC(=O)[C@H](Cc1ccccc1)NC(=O)[C@H](Cc1ccccc1)NC(=O)CCCCN)C(N)=O (H-[Ava]FFGLM-NH2)
d. CSCC[C@H](NC(=O)[C@H](CC(C)C)NC(=O)[C@@H]1CCCN1C(=O)[C@H](Cc1ccccc1)NC(=O)[C@H](Cc1ccccc1)NC(=O)CCCCN)C(N)=O
e. CSCC[C@H](NC(=O)[C@H](CC(C)C)N1CC2CCN(C(=O)[C@H](Cc3ccccc3)NC(=O)[C@H](Cc3ccccc3)NC(=O)[C@H](CO)NC(=O)[C@H](CC(=O)O)NC(=O)[C@@H](N)CCCCN)C2C1=O)C(N)=O (some centres not stated)
Query: Order the 5 compounds from highest to lowest pEC50. To answer, arrange all of the labels according to the requested order.
Result: d, c, a, e, b
(d: 7.87, c: 7.42, a: 7.17, e: 5.99, b: 5.37)

====

- target: Substance-K receptor (Rattus norvegicus, UniProt P16610)
- Sequence (P16610 whole entry): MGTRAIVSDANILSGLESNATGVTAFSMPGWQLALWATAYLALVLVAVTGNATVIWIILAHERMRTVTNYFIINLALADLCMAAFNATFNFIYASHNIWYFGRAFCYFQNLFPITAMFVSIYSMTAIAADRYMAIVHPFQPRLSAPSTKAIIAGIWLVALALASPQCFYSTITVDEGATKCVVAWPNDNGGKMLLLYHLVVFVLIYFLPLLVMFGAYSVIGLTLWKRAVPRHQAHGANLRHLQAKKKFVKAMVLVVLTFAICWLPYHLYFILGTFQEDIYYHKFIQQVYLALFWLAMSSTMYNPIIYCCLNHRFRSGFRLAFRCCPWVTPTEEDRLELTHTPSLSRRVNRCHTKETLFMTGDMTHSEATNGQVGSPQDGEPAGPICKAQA
- test-description: In vitro agonistic activity against tachykinin receptor 2 of rat colon muscularis mucosae.
pEC50: −log10 of the molar value. Non-standard residues stand in square brackets, D forms with d. Residues, ends and D or L forms follow the SMILES beside them. Ava = NCCCCC(=O)O
value-type: pEC50

As a guide, the following entries are already answered.
[
  {
    "compound": "CSCC[C@H](NC(=O)[C@@H](CC(C)C)N1C[C@@H]2CCN(C(=O)[C@H](Cc3ccccc3)NC(=O)[C@H](Cc3ccccc3)NC(=O)CCCCN)[C@@H]2C1=O)C(N)=O",
    "target": "Substance-K receptor (Rattus norvegicus, UniProt P16610)",
    "value-type": "pEC50",
    "meas-value": 6.25
  },
  {
    "compound": "CSCC[C@H](NC(=O)[C@H](CC(C)C)N1CCC(NC(=O)[C@@H](NC(=O)[C@H](Cc2ccccc2)NC(=O)[C@H](CO)NC(=O)[C@H](CC(=O)O)NC(=O)[C@H](CCCCN)NC(C)=O)C(C)C)C1=O)C(N)=O (stereo not given in full)",
    "target": "Substance-K receptor (Rattus norvegicus, UniProt P16610)",
    "value-type": "pEC50",
    "meas-value": 8.89
  },
  {
    "compound": "CSCC[C@H](NC(=O)[C@H](CC(C)C)NC(=O)CNC(=O)[C@@H](NC(=O)[C@H](Cc1ccccc1)NC(=O)CCCCN)C(C)C)C(N)=O (H-[Ava]FVGLM-NH2)",
    "target": "Substance-K receptor (Rattus norvegicus, UniProt P16610)",
    "value-type": "pEC50",
    "meas-value": 7.03
  },
  {
    "compound": "CSCC[C@H](NC(=O)[C@H](CC(C)C)N1CC[C@@H](NC(=O)[C@@H](NC(=O)[C@H](Cc2ccccc2)NC(=O)[C@H](CO)NC(=O)[C@H](CC(=O)O)NC(=O)[C@@H](N)CCCCN)C(C)C)C1=O)C(N)=O",
    "target": "Substance-K receptor (Rattus norvegicus, UniProt P16610)",
    "value-type": "pEC50",
    "meas-value": 8.43
  },
  {
    "compound": "CSCC[C@H](NC(=O)[C@H](CC(C)C)NC(=O)CNC(=O)[C@H](Cc1ccccc1)NC(=O)[C@H](Cc1ccccc1)NC(=O)CCCCN)C(N)=O (H-[Ava]FFGLM-NH2)",
    "target": "Substance-K receptor (Rattus norvegicus, UniProt P16610)",
    "value-type": "pEC50",
    "meas-value": 5.92
  },
  {
    "compound": "CSCC[C@H](NC(=O)[C@H](CC(C)C)NC(=O)[C@@H]1CCCN1C(=O)[C@H](Cc1ccccc1)NC(=O)[C@H](Cc1ccccc1)NC(=O)CCCCN)C(N)=O",
    "target": "Substance-K receptor (Rattus norvegicus, UniProt P16610)",
    "value-type": "pEC50",
    "meas-value": 4.89
  },
  {
    "compound": "CSCC[C@H](NC(=O)[C@H](CC(C)C)N1CC[C@]2(CCCN2C(=O)[C@H](Cc2ccccc2)NC(=O)[C@H](Cc2ccccc2)NC(=O)CCCCN)C1=O)C(N)=O",
    "target": "Substance-K receptor (Rattus norvegicus, UniProt P16610)",
    "value-type": "pEC50",
    "meas-value": 5.86
  },
  {
    "compound": "CSCC[C@H](NC(=O)[C@H](CC(C)C)NC(=O)CNC(=O)[C@@H](NC(=O)[C@H](Cc1ccccc1)NC(=O)[C@H](CO)NC(=O)[C@H](CC(=O)O)NC(=O)[C@@H](N)CCCCN)C(C)C)C(N)=O",
    "target": "Substance-K receptor (Rattus norvegicus, UniProt P16610)",
    "value-type": "pEC50",
    "meas-value": 8.52
  }
]

1. CSCC[C@H](NC(=O)[C@H](CC(C)C)N1CC2CCN(C(=O)[C@H](Cc3ccccc3)NC(=O)[C@H](Cc3ccccc3)NC(=O)[C@H](CO)NC(=O)[C@H](CC(=O)O)NC(=O)[C@@H](N)CCCCN)C2C1=O)C(N)=O (stereo not given in full)
2. CSCC[C@H](NC(=O)[C@H](CC(C)C)N1C[C@@H]2CCN(C(=O)[C@H](Cc3ccccc3)NC(=O)[C@H](Cc3ccccc3)NC(=O)CCCCN)[C@@H]2C1=O)C(N)=O
Query: Which entry shows the lesser value of pEC50 here, 1 or 2 ? Pick one and reply with its label.
Result: 2
(2: 5.92, 1: 7.35)
